- System Under Test: α1G T-type calcium ion channels (Homo sapiens)
- Construct: host or cells: HEK293
- Sequence (O43497 whole entry): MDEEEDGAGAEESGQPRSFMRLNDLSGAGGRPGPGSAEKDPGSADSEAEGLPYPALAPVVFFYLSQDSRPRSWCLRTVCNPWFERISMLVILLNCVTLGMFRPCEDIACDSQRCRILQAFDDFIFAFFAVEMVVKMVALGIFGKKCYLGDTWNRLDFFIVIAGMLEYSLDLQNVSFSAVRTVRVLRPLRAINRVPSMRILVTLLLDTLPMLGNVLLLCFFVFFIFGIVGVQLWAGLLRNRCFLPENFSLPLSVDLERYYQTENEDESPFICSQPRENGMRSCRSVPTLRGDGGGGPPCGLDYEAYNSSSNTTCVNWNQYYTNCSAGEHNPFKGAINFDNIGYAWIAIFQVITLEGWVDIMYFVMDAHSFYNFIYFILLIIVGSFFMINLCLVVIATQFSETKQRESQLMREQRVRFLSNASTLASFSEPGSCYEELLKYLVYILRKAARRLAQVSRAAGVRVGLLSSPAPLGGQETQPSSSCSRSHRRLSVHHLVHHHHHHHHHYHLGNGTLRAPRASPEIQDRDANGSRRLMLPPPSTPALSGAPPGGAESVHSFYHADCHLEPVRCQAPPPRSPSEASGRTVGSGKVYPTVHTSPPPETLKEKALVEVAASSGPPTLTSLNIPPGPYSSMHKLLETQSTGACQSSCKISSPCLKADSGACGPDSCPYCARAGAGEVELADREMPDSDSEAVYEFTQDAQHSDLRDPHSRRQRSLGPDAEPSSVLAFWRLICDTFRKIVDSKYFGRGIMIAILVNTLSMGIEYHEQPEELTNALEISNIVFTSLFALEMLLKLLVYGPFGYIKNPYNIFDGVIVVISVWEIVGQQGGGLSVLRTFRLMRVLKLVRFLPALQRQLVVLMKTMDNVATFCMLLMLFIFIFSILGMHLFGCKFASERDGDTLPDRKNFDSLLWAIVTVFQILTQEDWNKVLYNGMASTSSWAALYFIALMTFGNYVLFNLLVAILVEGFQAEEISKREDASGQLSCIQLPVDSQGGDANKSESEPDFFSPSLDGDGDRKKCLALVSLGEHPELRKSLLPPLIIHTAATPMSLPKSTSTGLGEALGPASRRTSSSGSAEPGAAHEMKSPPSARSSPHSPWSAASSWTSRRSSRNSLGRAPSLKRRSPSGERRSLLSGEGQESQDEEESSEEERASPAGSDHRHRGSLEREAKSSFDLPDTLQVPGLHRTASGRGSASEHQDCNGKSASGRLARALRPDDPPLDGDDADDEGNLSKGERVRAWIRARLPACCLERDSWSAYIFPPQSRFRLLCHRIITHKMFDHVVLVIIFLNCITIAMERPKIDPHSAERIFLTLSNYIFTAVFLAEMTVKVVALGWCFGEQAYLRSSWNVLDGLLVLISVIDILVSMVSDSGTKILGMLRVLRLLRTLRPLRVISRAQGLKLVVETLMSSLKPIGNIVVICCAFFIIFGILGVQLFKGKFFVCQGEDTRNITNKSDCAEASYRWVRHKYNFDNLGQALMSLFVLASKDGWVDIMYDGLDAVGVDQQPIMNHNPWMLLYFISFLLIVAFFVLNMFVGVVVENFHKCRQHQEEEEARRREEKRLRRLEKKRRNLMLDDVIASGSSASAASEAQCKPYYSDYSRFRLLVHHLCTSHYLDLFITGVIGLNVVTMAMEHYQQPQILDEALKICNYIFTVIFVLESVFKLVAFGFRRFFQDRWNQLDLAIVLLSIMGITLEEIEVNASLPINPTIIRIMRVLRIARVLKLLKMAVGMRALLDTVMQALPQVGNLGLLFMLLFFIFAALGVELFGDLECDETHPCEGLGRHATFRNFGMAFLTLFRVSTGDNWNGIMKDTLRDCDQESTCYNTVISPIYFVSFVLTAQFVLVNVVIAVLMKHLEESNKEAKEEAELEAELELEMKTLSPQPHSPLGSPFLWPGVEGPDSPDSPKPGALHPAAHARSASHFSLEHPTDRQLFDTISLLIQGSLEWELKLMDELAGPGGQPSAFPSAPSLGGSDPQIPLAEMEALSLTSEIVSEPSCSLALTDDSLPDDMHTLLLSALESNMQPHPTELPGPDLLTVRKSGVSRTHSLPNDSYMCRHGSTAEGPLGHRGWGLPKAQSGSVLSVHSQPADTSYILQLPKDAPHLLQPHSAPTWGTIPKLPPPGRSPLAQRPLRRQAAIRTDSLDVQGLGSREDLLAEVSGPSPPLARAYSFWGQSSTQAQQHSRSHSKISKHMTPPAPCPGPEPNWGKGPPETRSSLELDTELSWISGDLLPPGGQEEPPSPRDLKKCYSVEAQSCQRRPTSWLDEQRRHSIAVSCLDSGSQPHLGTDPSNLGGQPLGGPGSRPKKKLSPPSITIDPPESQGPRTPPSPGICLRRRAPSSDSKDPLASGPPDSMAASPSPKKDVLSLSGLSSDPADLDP
- Assay Remarks: Ion current inhibition on T-type calcium ion channels using a patch clamp (HEK293 cells)
- Format: cell-based
- Condition Label: read-out: % inhibition rate (10 μM); 10 μM; peak inward current, HEK293 cells expressing α1G T-type channel
- Description: Measurement of Ion Current Inhibition on T-Type Calcium Ion Channels Using a Patch Clamp (1) Cell Culture and Preparation […] The current was measured through an EPC10 amplifier (HEKA, Germany) by a precellular patch clamp technique using NPC©-16 Patchliner (Nanion Technologies, Germany). […] When a low polarization was performed at −20 mV for 300 ms, the inward current was measured at ten-second intervals. […]
Endpoint Label: inhibition at 10 µM (%)

COC(=O)C(CCCN1CCN(Cc2ccc(OC)c(OC)c2OC)CC1)(c1ccc(Br)cc1)C(C)C (stereo not drawn) [Embodiment 39] ... 95.1
CCOC(=O)C(CCCN1CCN(Cc2ccc(OC)cc2)CC1)(c1ccccc1)C(C)C (stereo not drawn) [Embodiment 23] ... 96.3
CCOC(=O)C(CCCN1CCN(Cc2ccc(F)cc2)CC1)(c1ccccc1)C(C)C (stereo not drawn) [Embodiment 26] ... 94
COC(=O)C(CCCN(C)CCCc1nc2cc(OC)ccc2[nH]1)(c1ccc(OC)cc1)C(C)C (stereo not drawn) [Embodiment 5] ... 91.7
COC(=O)C(CCCN1CCN(Cc2ccc(F)cc2)CC1)(c1ccc(Br)cc1)C(C)C (stereo not drawn) [Embodiment 32] ... 96.5
COC(=O)C(CCCN(C)CCCc1nc2ccccc2[nH]1)(c1ccc(OC)cc1)C(C)C (stereo not drawn) [Embodiment 4] ... 93.5
CCOC(=O)C(CCCN(C)CCCc1nc2ccccc2[nH]1)(c1ccccc1)C(C)C (stereo not drawn) [Embodiment 10] ... 98.3
COC(=O)C(CCCN1CCN(c2ccccc2OC)CC1)(c1ccc(Br)cc1)C(C)C (stereo not drawn) [Embodiment 35] ... 94.1
COCC(=O)O[C@]1(CCN(C)CCCc2nc3ccccc3[nH]2)CCc2cc(F)ccc2[C@@H]1C(C)C [mibefradil] ... 95.9

###

- System Under Test: α1G T-type calcium ion channels (Homo sapiens)
- Construct: host or cells: HEK293
- Assay Remarks: Ion current inhibition on T-type calcium ion channels using a patch clamp (HEK293 cells)
- Assay type: cell-based
- Condition Label: read-out: % inhibition rate (10 μM); 10 μM; peak inward current, HEK293 cells expressing α1G T-type channel
Endpoint Label: inhibition at 10 µM (%)

COC(=O)C(CCCN1CCN(Cc2ccccc2F)CC1)(c1ccc(Br)cc1)C(C)C (centres unmarked) [Embodiment 30] ... 90.4
COC(=O)C(CCCN(C)CCCc1nc2ccccc2[nH]1)(c1ccc(Br)cc1)C(C)C (centres unmarked) [Embodiment 1] ... 96.9
COC(=O)C(CCCN(C)CCCc1nc2cc(C)c(C)cc2[nH]1)(c1ccc(Br)cc1)C(C)C (centres unmarked) [Embodiment 12] ... 94.2
COC(=O)C(CCCN(C)CCCc1nc2cc(OC)ccc2[nH]1)(c1ccc(Br)cc1)C(C)C (centres unmarked) [Embodiment 13] ... 94.5
COC(=O)C(CCCN1CCN(Cc2cccc(C)c2)CC1)(c1ccc(Br)cc1)C(C)C (centres unmarked) [Embodiment 40] ... 94.9
COC(=O)C(CCCN1CCN(Cc2ccc(OC)cc2)CC1)(c1ccc(Br)cc1)C(C)C (centres unmarked) [Embodiment 38] ... 96
COC(=O)C(CCCN1CCN(Cc2cccc(F)c2)CC1)(c1ccc(Br)cc1)C(C)C (centres unmarked) [Embodiment 31] ... 89.3
CCOC(=O)C(CCCN(C)CCCc1nc2cc(C)c(C)cc2[nH]1)(c1ccccc1)C(C)C (centres unmarked) [Embodiment 11] ... 91.4
